# assay_info: in vivo
# assay_context: mouse, in vivo, po
endpoint_label: half-life (min)
The response must be a number in min with no trailing unit.

For record Cc1c(C)c2c(c(C)c1O)CCC(C)(C)O2 the listed half-life is 30

====

# assay_info: in vivo
# assay_context: mouse, po
endpoint_label: MTD
I'd appreciate it if you included the unit after the number.

response.value for Cc1c(C)c2c(c(C)c1O)CCC(C)(C)O2 (field: MTD) = 100 mg/kg

====

# assay_info: in vivo
# assay_context: mouse, in vivo, iv
endpoint_label: half-life (min)
Entry rule: numbers only, all in min.

# half-life of Cc1c(C)c2c(c(C)c1O)CCC(C)(C)O2 [PMCol, 2,2,5,7,8-pentamethyl-6-chromanol] = 120
